Source listed as PubChem BioAssay (NCI).

- System: SF-268 CNS
- EXPERIMENT_DESCRIPTION: NCI-60 one-dose screen, 48 h (100 = growth as untreated, 0 = no growth, -100 = all killed)
- CONDITION: 10 µM
This is part of a sample that, as a whole, favours compounds with a hit. Of some 83,000 tested, about 20% had one in any assay.
Rule for this label: criterion met means growth is less than 30%; criterion not met means growth is at least 30%.

COMPOUND	TARGET_DESC	LABEL_VALUE
CN1CCN(c2ccc(Nc3nc(NCCCNC(=O)c4ccccc4)c4sccc4n3)cc2)CC1	SF-268 CNS	criterion not met
O=C(CNc1nc(-c2ccccc2)cs1)Nc1ccc(Cl)cc1[N+](=O)[O-]	SF-268 CNS	criterion met
O=C(c1ccc(O)cc1)C1[C@H](c2ccc(Br)cc2)[C@@H](c2ccccc2)NC12C(=O)Nc1ccc(Br)cc12 (stereo partly specified)	SF-268 CNS	criterion met
S=c1nc(-c2ccccc2)cc(-c2cc3ccccc3nc2Cl)[nH]1	SF-268 CNS	criterion not met
CSc1nc(-c2cccc(C)c2)c2cc(-c3ccccc3)n(C)c2n1	SF-268 CNS	criterion met
CCOC(=O)c1sc(N/N=C(\C)c2ccc3c(c2)Nc2ccccc2S3)nc1C	SF-268 CNS	criterion not met
COc1ccc(CCN2C(=O)/C(=C/c3csc(C#N)n3)SC2=S)cc1	SF-268 CNS	criterion not met
O=c1[nH]c2ccccc2cc1CSc1ccc(Nc2nccc(-c3ccc4c(c3)OCO4)n2)cc1	SF-268 CNS	criterion not met
COc1ccccc1[C@H]1C(C(=O)c2ccc(O)cc2)C2(N[C@@H]1c1ccccc1)C(=O)Nc1ccc(Br)cc12 (stereo partly specified)	SF-268 CNS	criterion not met
COc1ccc2[nH]c(O)c(N=NC(=O)c3cc(-c4ccc(C)cc4)nc4ccccc34)c2c1	SF-268 CNS	criterion not met
COc1ccc(CN2[C@H](C(=O)NCc3ccc(C(=O)NO)cc3)Cc3c([nH]c4ccccc34)[C@H]2C2CC2)cc1	SF-268 CNS	criterion not met
CC(=O)Nc1nc(-c2ccc(N3CCN(C)CC3)c(NS(=O)(=O)c3cccc4c(N(C)C)cccc34)c2)cs1	SF-268 CNS	criterion not met
O=C1NC(=NC23CC4CC(CC(C4)C2)C3)N/C1=C\c1ccc2ncccc2n1	SF-268 CNS	criterion met
COc1ccc2[nH]c(O)c(N=NC(=O)COc3ccc(NC(=O)Nc4ccc(Cl)cc4)cc3)c2c1	SF-268 CNS	criterion met
C=CC(=O)Nc1ccc(C(=O)/C=C/c2ccc(N(C)CCF)cc2)c(O)c1	SF-268 CNS	criterion met
O=C(c1ccc(O)cc1)C1[C@H](c2ccccc2Br)[C@@H](c2ccccc2)NC12C(=O)Nc1ccc(Cl)cc12 (stereo partly specified)	SF-268 CNS	criterion met
